// data source = patent US5776929A

# study target: CCK-B receptor (Mus musculus, UniProt P56481)
# Construct: crude membrane specimen from mouse cerebral cortex; from tissue; host or cells: cerebral cortex of male ddY mice, crude membranes
# Sequence (P56481 whole entry): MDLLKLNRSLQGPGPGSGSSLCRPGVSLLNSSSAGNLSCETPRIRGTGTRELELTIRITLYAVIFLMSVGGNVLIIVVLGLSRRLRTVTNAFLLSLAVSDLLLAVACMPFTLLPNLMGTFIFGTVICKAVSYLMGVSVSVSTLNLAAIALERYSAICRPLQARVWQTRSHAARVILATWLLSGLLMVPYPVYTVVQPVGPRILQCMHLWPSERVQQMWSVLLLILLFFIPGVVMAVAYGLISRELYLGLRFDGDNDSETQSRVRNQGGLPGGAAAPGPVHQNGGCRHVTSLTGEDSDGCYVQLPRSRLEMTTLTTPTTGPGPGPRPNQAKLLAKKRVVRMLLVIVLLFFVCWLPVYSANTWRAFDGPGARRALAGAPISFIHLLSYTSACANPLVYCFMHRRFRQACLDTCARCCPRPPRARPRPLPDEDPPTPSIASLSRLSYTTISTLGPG
# experiment notes: CCK-B receptor antagonism, displacement of [3H]CCK-8, cerebral cortex crude membrane
# Type: binding, mouse (male ddY)
# assay context: mouse cerebral cortex membrane, [3H]CCK-8 1 nM, 90 min, 25 °C; read-out: Receptor CCK-B (IC50)
measure: IC50 (nM)

compound	unit symbol	measured value
CCOC(=O)COc1cccc(NC(=O)NC2C(=O)N(CC(=O)C3CC3)c3ccccc3N(CC(=O)C3CC3)C2=O)c1 [Compound 17-v]	nM	180
COC(=O)CCCNC(=O)OCc1cccc(NC(=O)NC2C(=O)N(CC(=O)C3CC3)c3ccccc3N(CC(=O)C3CC3)C2=O)c1 [Compound 9h]	nM	20
COC(=O)CCCNC(=O)OCc1cccc(NC(=O)NC2C(=O)N(CC3CC3)c3ccccc3N(CC3CC3)C2=O)c1 [Compound 9o]	nM	78
O=C(Nc1cccc(C(=O)O)c1)NC1C(=O)N(CC(=O)C2CC2)c2ccccc2N(CC(=O)C2CC2)C1=O [Compound 17-ii]	nM	105
